// provenance: patent US20230279079A1

Target: T1, SARS spike S1 subunit (severe acute respiratory syndrome …, UniProt P59594 14-667)
T1 construct: domain: S1 subunit
Assay: ELISA
testReadout: binding result

A selection of reference data follows.
binder	binding result
FJ 10B (antibody, V domains shown) VH: QVQLVQSGAEVKKPGESLRISCKGSGYSFTSYWISWVRQMPGKGLEWMGRIDPSDSYTNYSPSFQGHVTISADKSISTAYLQWSSLKASDTAMYYCARLDPRYGPDYYGMDVWGQGTTVTVSS VL: AIRMTQSPSSLSASVGDRVTITCRASQSISSYLNWYQQKPGKAPKLLIHAASSLQSGVPSRFSGSGSGTDFTLTMSSLQPEDFATYYCQQSYSTPLTFGGGTKVEIR	binds
FJ 1C (antibody, V domains shown) VH: QVQLQESGPGLVKPSETLSLTCTVSGYSISSGYYWGWIRQPPGKGLEWIGSIYHSGSTYYNPSLKSRVTISVDTSKNQFSLKLSSVTAADTAVYYCARDKALLWFGELFTNLFDYWGQGTLVTVSS VL: QSALTQPASVSGSPGQSITISCTGTSSDVGGYNYVSWYQQHPGKAPKLMIYEVSNRPSGVSNRFSGSKSGNTASLTISGLQAEDEANYYCSSYTSSSTLVFGGGTKLTVL	binds
EW 9C-1 (antibody, V domains shown) VH: EVQLVESGGGVVQPGASLRLSCVASGFTFNNFGFHWVRQAPGKGLEWLAVISYEGSKTYYAESLKGRFTISRDTSKNTVYLQMNSLRAEDTAVYYCARATSIFWFGEGRNWFDPWGQGALVTVSS VL: EIVMTQSPGTVSLSAGERATLSCRASQNVGTDLAWYVQRPGQAPRLLIYDTSNRATGIPARFSGRGSGTDFTLTIDSLEPEDFAVYYCQQRSNWPLTFGGGTKVEIK	no binding
EW 9C (antibody, V domains shown) VH: EVQLVESGGGVVQPGASLRLSCVASGFTFNNFGFHWVRQAPGKGLEWLAVISYEGSKTYYAESLKGRFTISRDTSKNTVYLQMNSLRAEDTAVYYCARATSIFWFGEGRNWFDPWGQGTMVTVSS VL: EIVLTQSPGTVSLSAGERATLSCRASQNVGTDLAWYVQRPGQAPRLLIYDTSNKATGIPARFSGRGSGTDFTLTIDSLEPEDFAVYYCQQRSNWPLTFGGGTKVEIR	no binding

For this binder ( FD 5E (antibody, V domains shown) VH: EVQLVESGGVVVQPGGSLRLSCAASGFTFDDYAMHWVRQAPGKGLEWVSLISWDGGSTYYADSVKGRFTISRDNSKNSLYLQMNSLRAEDTALYYCAKDSVRFRYYYGMDVWGQGTTVTVSS VL: EIVLTQSPATLSLSPGERATLSCRASQSVSSYLAWYQQKPGQAPRLLIYDASNRATGIPARFSGSGSGTDFTLTISSLEPEDFAVYYCQQRSNWPLTFGPGTKVDIK ), measured binding result is no binding
